Measured pIC50 by item
target: MetAP-2 (Homo sapiens, UniProt P50579)
Sequence (P50579 whole entry, species assumed): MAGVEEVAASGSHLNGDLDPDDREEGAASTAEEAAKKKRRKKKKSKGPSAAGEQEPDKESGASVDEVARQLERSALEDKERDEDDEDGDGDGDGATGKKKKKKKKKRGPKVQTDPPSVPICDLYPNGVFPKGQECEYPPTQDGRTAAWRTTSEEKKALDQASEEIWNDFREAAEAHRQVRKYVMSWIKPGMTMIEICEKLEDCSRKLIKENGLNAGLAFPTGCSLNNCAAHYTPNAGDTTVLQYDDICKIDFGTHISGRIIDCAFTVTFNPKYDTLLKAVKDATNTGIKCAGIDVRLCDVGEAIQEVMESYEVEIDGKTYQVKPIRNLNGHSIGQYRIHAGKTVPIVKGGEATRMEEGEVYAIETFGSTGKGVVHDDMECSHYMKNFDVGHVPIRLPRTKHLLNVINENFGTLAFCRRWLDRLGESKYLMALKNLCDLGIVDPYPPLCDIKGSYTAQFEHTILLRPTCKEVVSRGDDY
pIC50: −log10 of the molar value.

The examples below pair each entry with its known result.
Compound: CC(=O)Nc1ccc(N2CCC(O)(C(=O)NCCc3ccccc3F)C2=O)cn1 (stereo not shown)
pIC50: 6.00 to 8.00

Compound: O=C1CCc2cc(N3CC[C@](O)(C(=O)NCc4c(F)cc(Cl)cc4F)C3=O)ccc2N1
pIC50: 6.00 to 8.00

Compound: O=C(O)c1cc2cc(N3CC[C@](O)(C(=O)NCc4cc(F)cc(Cl)c4)C3=O)ccc2[nH]1
pIC50: 6.00 to 8.00

Below: the item to evaluate.
What value of pIC50 has been reported for the following compound? CC(C)NC(=O)c1cc2cc(N3CC[C@@](O)(C(=O)NCc4cc(F)cc(Cl)c4)C3=O)ccc2[nH]1
< 5.00

Hey, just so you know, these numbers are from patent US10093623B2.
